From: ChEMBL document CHEMBL1687740

# Tested on: THP-1
# METHOD_DESCRIPTION: Drug uptake in human THP1 cells after 24 hrs in presence of verapamil
# Assay type: ADME, cell-based
# CONDITIONS: thp-1, 24 h
PROPERTY_LABEL: Drug uptake

CC[C@H]1OC(=O)[C@H](C)[C@@H](O[C@H]2C[C@@](C)(OC)[C@@H](O)[C@H](C)O2)[C@H](C)[C@@H](O[C@@H]2O[C@H](C)C[C@H](N(C)C)[C@H]2O)[C@](C)(O)C[C@@H](C)CN(C)[C@H](C)[C@@H](O)[C@]1(C)O: Active
CC[C@H]1OC(=O)[C@H](C)[C@@H](O[C@H]2C[C@@](C)(OC)[C@@H](O)[C@H](C)O2)[C@H](C)[C@@H](O[C@@H]2O[C@H](C)C[C@H](N(C)C)[C@H]2O)[C@](C)(OC)C[C@@H](C)C(=O)[C@H](C)[C@@H](O)[C@]1(C)O: Active
CC[C@H]1OC(=O)[C@@](C)(F)C(=O)[C@H](C)[C@@H](O[C@@H]2O[C@H](C)C[C@H](N(C)C)[C@H]2O)[C@](C)(OC)C[C@@H](C)C(=O)[C@H](C)[C@H]2N(CCCCn3cc(-c4cccc(N)c4)nn3)C(=O)O[C@]12C: Active
CC[C@H]1OC(=O)[C@H](C)C(=O)[C@H](C)[C@@H](O[C@@H]2O[C@H](C)C[C@H](N(C)C)[C@H]2O)[C@](C)(OC)C[C@@H](C)C(=O)[C@H](C)[C@H]2N(CCCCn3cnc(-c4cccnc4)c3)C(=O)O[C@]12C: Active
